- assayedTarget: T1, HLA-A*24:02 (human, biotinylated heavy chain)
- T1 construct: Conditional HLA class I complex as for m1
- methodNotes: UV peptide exchange; HLA class I ELISA
The threshold is 5%. Values of Exch I (%) beneath it are tagged 1; values meeting or exceeding it are tagged -1.

Solved cases below.
>>> assignedlabel("LIAMDSAIT [Peptide 10, 9-mer LIAMDSAIT derived from P22 (SEQ ID NO: 1003)]")
1
>>> assignedlabel("KQLIAMDSA [Peptide 9, 9-mer KQLIAMDSA derived from P22 (SEQ ID NO: 1003)]")
1
>>> assignedlabel("YHREKQLIA [Peptide 6, 9-mer YHREKQLIA derived from P22 (SEQ ID NO: 1003)]")
-1
>>> assignedlabel("SLIAMDSAI [Peptide 3, 9-mer SLIAMDSAI derived from FUS1 (SEQ ID NO: 1001)]")
-1
>>> assignedlabel("LYHREKQLI [Peptide 5, 9-mer LYHREKQLI derived from P22 (SEQ ID NO: 1003)]")
-1

For this binder, is Exch I (%) lower than 5%? SLYHREKQL [Peptide 4, 9-mer SLYHREKQL derived from P22 (SEQ ID NO: 1003)]
-1

Determine whether this binder shows Exch I (%) lower than 5% (ties excluded): IAMDSAITL [Peptide 2, 9-mer IAMDSAITL derived from FUS1 (SEQ ID NO: 1001)]
-1

Confirm or reject: Exch I (%) of HREKQLIAM [Peptide 7, 9-mer HREKQLIAM derived from P22 (SEQ ID NO: 1003)] lies strictly below 5%
-1
